Where do the numbers come from? From ChEMBL document CHEMBL3856199.

# assay.method.text: Ratio of drug uptake in tumor to blood in C57BL/6J mouse implanted with mouse B16F0 cells at 3.7 MBq, iv measured at 1 hr post injection
# Type: ADME, organism-based
endpoint.name: Kp at 1 h
Note: the reply should be a number with no unit written.

## Task Requested read-out: Kp at 1 h. Entry: CCN(CC)CCNC(=O)c1cnc2cc(NC(=O)COc3ccc(SSCCOC(=O)O[C@H]4C[C@H](n5cc([125I])c(=O)[nH]c5=O)O[C@@H]4CO)cc3)ccc2n1
## Result 1.11

Moving on to another compound below.
## Task Requested read-out: Kp at 1 h. Entry: O=c1[nH]c(=O)n([C@H]2C[C@H](O)[C@@H](CO)O2)cc1[125I]
## Result 0.89
